Readings of normalized growth for the listed compounds
# test: chemical genetic growth profiling, strain panel (AID 1159580);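 also: tested at 20 µM; growth read once vehicle control cultures reached saturation at 30 °C; 1 = growth at the plate median or of vehicle wells; lower values mean less growth of the strain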
# measurementSetup: S. cerevisiae deletion strains, growth OD, locus YER167W, strain BCK2, stronger effect = lower value
About 2,000 (36%) of roughly 5,500 compounds were called active. Roughly 18% stayed inconclusive and do not appear here. The list shows a part of the results.
outcomeMeasure: normalized growth

>>> recordednumber("O=C(CCCN1CCC2(CC1)C(=O)NCN2c1ccccc1)c1ccc(F)cc1")
0.995
>>> recordednumber("NC(N)=Nc1ccc(Cl)cc1")
1.03
>>> recordednumber("C/C=C/CC(C)C(O)C1C(=O)NC(CC)C(=O)N(C)CC(=O)N(C)C(CC(C)C)C(=O)NC(C(C)C)C(=O)N(C)C(CC(C)C)C(=O)NC(C)C(=O)NC(C)C(=O)N(C)C(CC(C)C)C(=O)N(C)C(CC(C)C)C(=O)N(C)C(C(C)C)C(=O)N1C (stereo not given)")
1.03
>>> recordednumber("C[C@@H](CO)NC(=O)C1C=C2c3cccc4[nH]cc(c34)C[C@H]2N(C)C1 (stereo not given in full)")
0.99
>>> recordednumber("COC(=O)NC(=S)Nc1ccccc1NC(=S)NC(=O)OC")
0.977
>>> recordednumber("NCC(O)CC(=O)O (stereo not given)")
1.01
>>> recordednumber("NC[C@H]1O[C@H](OC2[C@@H](N)C[C@@H](N)[C@H](O[C@H]3O[C@H](CO)[C@@H](O)[C@H](N)[C@H]3O)[C@H]2O)[C@H](O)[C@@H](O)[C@@H]1O (stereo not given in full)")
0.989
>>> recordednumber("CC1=CC(=O)C2C(C)(C)CCC[C@]2(C)[C@@]1(O)CCc1ccoc1 (stereo not given in full)")
0.989
>>> recordednumber("COc1cc(C)c2c(=O)c3c(O)cc(OC)cc3oc2c1")
1.01
>>> recordednumber("Oc1ccc2c3c1OC1[C@@H](O)CC[C@@]4(O)[C@@H](C2)N(CC2CCC2)CC[C@]314 (stereo not given in full)")
1.02
>>> recordednumber("C[N+]1(C)C[C@H](O)[C@H](C(=O)[O-])C1")
1.01
>>> recordednumber("NC[C@@H]1O[C@H](O[C@@H]2[C@@H](CO)OC(O[C@@H]3[C@@H](O)[C@H](N)C[C@H](N)[C@H]3O[C@H]3O[C@H](CO)[C@@H](O)[C@H](O)[C@H]3N)[C@@H]2O)[C@H](N)[C@@H](O)[C@@H]1O (stereo not given in full)")
1.01
>>> recordednumber("CCn1nc(C(=O)O)c(=O)c2cc3c(cc21)OCO3")
0.993
>>> recordednumber("NC[C@H]1O[C@H](O[C@H]2[C@H](O)[C@@H](O[C@H]3O[C@H](CO)[C@@H](O)[C@H](N)[C@H]3O)[C@H](N)C[C@@H]2N)[C@H](N)[C@@H](O)[C@@H]1O")
1
>>> recordednumber("O=c1c(O)cc([C@H]2Oc3cc(O)cc(O)c3C[C@H]2O)cc2c([C@H]3Oc4cc(O)cc(O)c4C[C@H]3O)cc(O)c(O)c12")
1.02

----------
Readings of normalized growth for the listed molecules
# test: chemical genetic growth profiling, strain panel (AID 1159580)
# measurementSetup: S. cerevisiae deletion strains, growth OD, locus YML124C, strain tub3, stronger effect = lower value
Screen size: about 5,500 compounds; about 2,000 (36%) were called active. Inconclusive results (about 18%) are left out. The list shows a part of the results.
outcomeMeasure: normalized growth

>>> recordednumber("C[C@H]1O[C@@H](O[C@H]2[C@@H](O)C[C@H](O[C@H]3[C@@H](O)C[C@H](O[C@H]4CC[C@]5(C)C6CC[C@]7(C)[C@@H](C8=CC(=O)OC8)CC[C@]7(O)C6CC[C@@H]5C4)O[C@@H]3C)O[C@@H]2C)C[C@H](O)[C@@H]1O (stereo partly drawn)")
0.975
>>> recordednumber("CO[C@H]1[C@H](O)[C@@H](O[C@H]2CC[C@]3(C=O)C4CC[C@]5(C)[C@@H](C6=CC(=O)OC6)CC[C@]5(O)C4CC[C@@H]3C2)O[C@@H](C)[C@@H]1O (stereo partly drawn)")
0.989
>>> recordednumber("C[C@@H]1O[C@@H](O[C@H]2CC[C@]3(C=O)C4CC[C@]5(C)[C@@H](C6=CC(=O)OC6)CC[C@]5(O)C4CC[C@]3(O)C2)[C@H](O)[C@H](O)[C@H]1O (stereo partly drawn)")
0.983

----------
# test: chemical genetic growth profiling, strain panel (AID 1159580);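 also: tested at 20 µM; growth read once vehicle control cultures reached saturation at 30 °C; 1 = growth at the plate median or of vehicle wells; lower values mean less growth of the strain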
# measurementSetup: S. cerevisiae deletion strains, growth OD, locus YPR167C, strain met16, stronger effect = lower value
About 2,000 (36%) of roughly 5,500 compounds were called active. Inconclusive results (about 18%) are left out. Some of the results follow.
Sorting guide: entries reporting normalized growth beneath 1 go in the y pile, the rest go in the n pile.

>>> assignedclass("CC(=O)N1CCN(c2ccc(OCC3CO[C@](Cn4ccnc4)(c4ccc(Cl)cc4Cl)O3)cc2)CC1 (stereo partly drawn)")
"y"
>>> assignedclass("COc1cc(C(=O)N2CCOCC2)cc(OC)c1OC")
"y"
>>> assignedclass("COc1cc(C(=O)O)cc(OC)c1OC")
"n"
>>> assignedclass("C[C@@H]1CC[C@@]23CCC4(C)[C@@](C=CC5[C@@]6(C)CC[C@H](O)C(C)(C)C6CC[C@]54C)(OC2=O)C3[C@H]1C (stereo partly drawn)")
"n"
>>> assignedclass("CO[C@@H]1C[C@H](O[C@H]2CC[C@]3(C)C4CC[C@]5(C)[C@@H](C6=CC(=O)OC6)CC[C@]5(O)[C@@H]4CC[C@]3(O)C2)O[C@H](C)[C@@H]1O (stereo partly drawn)")
"y"

----------
# test: chemical genetic growth profiling, strain panel (AID 1159580);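 also: tested at 20 µM; growth read once vehicle control cultures reached saturation at 30 °C; 1 = growth at the plate median or of vehicle wells; lower values mean less growth of the strain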
# measurementSetup: S. cerevisiae deletion strains, growth OD, locus YOR083W, strain WHI5, stronger effect = lower value
In all, about 5,500 compounds went through this assay and about 2,000 (36%) were called active. Another 18% or so got no clear call; they are omitted. Some of the results follow.
outcomeMeasure: normalized growth

>>> result("Cc1cc(N)c2ccccc2[n+]1CCCCCCCCCC[n+]1c(C)cc(N)c2ccccc21")
"0.0703 (active)"
>>> result("Oc1ccc2c3c1OC1[C@@H](O)CC[C@@]4(O)[C@@H](C2)N(CC2CCC2)CC[C@]314 (stereo partly drawn)")
"0.987 (inactive)"
>>> result("C[C@H]1[C@H](C)CC[C@]2(C(=O)O)CC[C@]3(C)C(=CCC4[C@@]5(C)C[C@@H](O)[C@H](O)[C@@](C)(CO)C5[C@H](O)C[C@]43C)[C@H]12 (stereo partly drawn)")
"0.954 (inactive)"
>>> result("Nc1ccc(S(=O)(=O)Nc2ncccn2)cc1")
"0.964 (inactive)"
>>> result("C[C@H]1[C@H](C)CC[C@]2(C(=O)O)CC[C@]3(C)C(=CCC4[C@@]5(C)C[C@@H](O)[C@H](O)[C@@](C)(CO)C5CC[C@]43C)[C@H]12 (stereo partly drawn)")
"0.984 (inactive)"
>>> result("CCCc1nc(C)c2c(=O)[nH]c(-c3cc(S(=O)(=O)N4CCN(CC)CC4)ccc3OCC)nn12")
"0.946 (inactive)"
>>> result("CC1=CC(=O)C2C(C)(C)CCC[C@]2(C)[C@@]1(O)CCc1ccoc1 (stereo partly drawn)")
"1.01 (inactive)"
>>> result("O=S(=O)(O)O")
"0.986 (inactive)"

----------
# test: chemical genetic growth profiling, strain panel (AID 1159580);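 also: tested at 20 µM; growth read once vehicle control cultures reached saturation at 30 °C; 1 = growth at the plate median or of vehicle wells; lower values mean less growth of the strain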
# measurementSetup: S. cerevisiae deletion strains, growth OD, locus YPR167C, strain met16
The whole screen tested about 5,500 compounds, of which about 2,000 (36%) were called active. Another 18% or so got no clear call; they are omitted. Cut-off read from the data, not from the text of the source: active = normalized growth mostly below about 0.91 (no sharp cut-off); inconclusive = no clear call, values can overlap the other calls; inactive = mostly above about 0.92. The list shows a part of the results.
Labels: active, inactive

>>> assignedclass("COc1cc(C)c2c(=O)c3c(O)cc(OC)cc3oc2c1")
"inactive"
>>> assignedclass("C/C=C(/C)C(=O)O[C@@H]1Cc2c(ccc3ccc(=O)oc23)OC1(C)C")
"inactive"
>>> assignedclass("CC(=O)O[C@@H]1c2c(ccc3ccc(=O)oc23)OC(C)(C)[C@@H]1OC(=O)CC(C)C")
"inactive"
>>> assignedclass("C[C@@H]1CC[C@@]23CCC4(C)[C@@](C=CC5[C@@]6(C)CCC(=O)C(C)(C)C6CC[C@]54C)(OC2=O)C3[C@H]1C (stereo not given in full)")
"inactive"
>>> assignedclass("COc1nc(NC(C)C)nc(NC(C)C)n1")
"inactive"
>>> assignedclass("COc1ccc(-c2cc(=O)c3c(O)cc(O)cc3o2)cc1O")
"inactive"
>>> assignedclass("CC1(C)Oc2ccc3ccc(=O)oc3c2CC1O (stereo not given)")
"inactive"
>>> assignedclass("C/C=C(\\C)C(=O)O[C@@H]1c2c(ccc3ccc(=O)oc23)OC(C)(C)[C@@H]1OC(C)=O")
"inactive"
>>> assignedclass("COc1ccc(-c2cc(=O)c3c(O)cc(O)c(-c4cc(-c5cc(=O)c6c(O)cc(O)cc6o5)ccc4OC)c3o2)cc1")
"inactive"
>>> assignedclass("COc1cc(C)c2c(=O)c3c(O)cc(O)cc3oc2c1")
"active"
